test: Phase I study plasma pharmacokinetics; format: in vivo, human; settings: human, plasma, po, 600 mg/day QD, Day 1 first dose; 600 mg/day QD; n=6; mean

# chemicalString, unitInfo, AUC(0-t)
measured = [
    ("Cc1ccc2c(Nc3cccc(Cl)c3F)nccc2c1NC(=O)c1csc2c(N)ncnc12", "ng·h/mL", 71100),
]

---

assay: Phase I study plasma pharmacokinetics; type: in vivo, human; settings: human, plasma, po, 50 mg/day, Day 1 first dose; 50 mg/day QD; n=3; mean
readoutName: AUC(0-t) (ng·h/mL)

# chemicalString, readoutName, dataValue
records = [
    ("Cc1ccc2c(Nc3cccc(Cl)c3F)nccc2c1NC(=O)c1csc2c(N)ncnc12", "AUC(0-t)", 13000),
]
